Reference source for all entries: ChEMBL document CHEMBL3988442

System: Wolbachia pipientis
Assay: Anti-Wolbachia Cell-Based Screen
Type: functional
Design: scale not given: in the data most compounds retested in dose-response had high values
Conditions: 5 µM
The campaign covered roughly 48,000 compounds. About 13,000 (27%) showed an effect of 50% or more. The list shows a part of the results.
# Percent Effect values compiled below

{"columns": ["compound", "test-target", "Percent Effect"],
 "data": [
  ["COc1cc(Oc2ccc(C(F)(F)F)cn2)ccc1CN1CCCC1", "Wolbachia pipientis", "2.757%"],
  ["Cc1[nH]ncc1CCCNC(=O)N1CCN2CCCCC2C1 (stereo not drawn)", "Wolbachia pipientis", "-2.363%"],
  ["COC(=O)c1ccc(N2CCN(Cc3csc(C)n3)CC2)nn1", "Wolbachia pipientis", "-1.977%"],
  ["Cn1cc(Cl)c(CN2CCn3nc(C(=O)Nc4ccccc4)cc3C2)n1", "Wolbachia pipientis", "-7.275%"],
  ["Cc1nc(N2CCC3(CCCN(CC4CC4)C3=O)C2)c2sccc2n1 (stereo not drawn)", "Wolbachia pipientis", "-31.46%"],
  ["CCCn1nnnc1CN(C)C(C)c1ccc(C)cc1 (stereo not drawn)", "Wolbachia pipientis", "0.6006%"],
  ["CO[C@H]1CN(C(=O)c2ccc[nH]2)[C@@H]2COC[C@H]12", "Wolbachia pipientis", "98.6%"],
  ["Cc1ncccc1OC1(C(=O)NCCC2CCCN2C)CCNCC1 (stereo not drawn)", "Wolbachia pipientis", "17.07%"],
  ["COc1cc(CN2CCC(NC(=O)c3cccn3C)C2)cc(OC)c1 (stereo not drawn)", "Wolbachia pipientis", "-4.957%"],
  ["CC[C@@H]1N(Cc2cc(OC)cc(OC)c2)CCC[C@]12CCC(=O)N2C", "Wolbachia pipientis", "92.68%"],
  ["Cc1nc(CN2CCN(c3ccc(SC(C)C)nn3)CC2)cs1", "Wolbachia pipientis", "68.89%"],
  ["Cc1cc(=O)n(CC(=O)Nc2ccc(C(N)=O)cc2)nc1C", "Wolbachia pipientis", "4.74%"],
  ["Cc1nc(CO[C@H]2CN(C(=O)c3ccc[nH]3)[C@@H]3COC[C@H]23)cs1.O=C(O)C(F)(F)F", "Wolbachia pipientis", "-0.1564%"],
  ["CCCS(=O)(=O)N1CCN(CC(F)(F)F)CC1", "Wolbachia pipientis", "16.36%"],
  ["CN1CCC(NC(=O)Nc2ccc(Br)c(F)c2)C1=O (stereo not drawn)", "Wolbachia pipientis", "3.385%"],
  ["CN(C)[C@@H]1COC[C@@H]2CN(Cc3ccc4c(c3)OCO4)C[C@@H]21.O=C(O)C(F)(F)F.O=C(O)C(F)(F)F", "Wolbachia pipientis", "-14.92%"],
  ["CNc1nc(CNC(=O)Nc2ccc(OC)cc2C)cs1", "Wolbachia pipientis", "10.14%"],
  ["CCO[C@H]1CN(C(=O)c2ccc3c(c2)OCO3)[C@@H]2COC[C@H]12", "Wolbachia pipientis", "0.5362%"],
  ["O=C(c1ccc[nH]1)N1C[C@H](OCc2ccccn2)[C@H]2COC[C@H]21", "Wolbachia pipientis", "111.2%"],
  ["Cc1csc(CNC(=O)Nc2cc(C(F)(F)F)c[nH]c2=O)n1", "Wolbachia pipientis", "-4.751%"],
  ["Cc1nc(SCC(=O)Nc2ccc(C(N)=O)cc2)c(C#N)c(C)c1C", "Wolbachia pipientis", "108.9%"],
  ["COc1cc(CN2C[C@@H]3CNC(=O)[C@H](C)[C@@H]3C2)cc(OC)c1", "Wolbachia pipientis", "103.5%"],
  ["CN1CCC(NC(=O)c2cc(Br)cc(Cl)c2O)C1=O (stereo not drawn)", "Wolbachia pipientis", "91.47%"]
]}

====

Percent Effect values by entry
Test system: Wolbachia pipientis
Assay: Anti-Wolbachia Cell-Based Screen
Type: functional
Parameters: scale not given: in the data most compounds retested in dose-response had high values
Settings: 5 µM
Hit rate of the full screen: of about 48,000 compounds, about 13,000 (27%) showed an effect of 50% or more. The list shows a part of the results.

{"columns": ["molecule", "Percent Effect / %"],
 "data": [
  ["COc1cc(F)ccc1C(C(=O)O)N(C)Cc1ccon1 (stereo not given)", 19.52],
  ["Cc1ccc2nc(C)c(C)c(C(=O)N3CCN(c4nccs4)CC3)c2c1", -13.27],
  ["Cc1cc(NC(=O)C(C)Nc2cccc(COCc3ccco3)c2)no1 (stereo not given)", 96.95],
  ["COc1cc(C)cc(C(C(=O)O)N(C)Cc2cnn(C)c2)c1OC (stereo not given)", -13.95],
  ["COc1ccc(Cl)cc1C(C(=O)O)N(C)Cc1ccon1 (stereo not given)", -2.698]
]}

====

Tested on: Wolbachia pipientis
Assay: Anti-Wolbachia Cell-Based Screen
Assay type: functional
Design: scale not given: in the data most compounds retested in dose-response had high values
Settings: 5 µM
Screen size: about 48,000 compounds; about 13,000 (27%) showed an effect of 50% or more. Some of the results follow.
Below is a list of entries, each paired with its recorded Percent Effect value.

{"columns": ["molecule", "Percent Effect"],
 "data": [
  ["CN(Cc1nnc(C2CC2)n1C)C1CCN(CCS(C)(=O)=O)C1 (stereo unspecified)", "-20.16%"],
  ["CN(Cc1nnc(C2CC2)n1C)C1CCN(Cc2ccon2)C1 (stereo unspecified)", "-8.64%"],
  ["CS(=O)(=O)NCC1CCCN(c2ccc(C(F)(F)F)cn2)C1 (stereo unspecified)", "7.899%"],
  ["Cc1ccc(NC(=O)CN[C@H](C(N)=O)C(C)C)cc1F", "-36.68%"],
  ["CC(C)c1nc(C2CCCN(C(=O)c3ccc4[nH]nnc4c3)C2)no1 (stereo unspecified)", "134.9%"],
  ["OC1(CN2CCCCC2)CCN(c2cc(C(F)(F)F)ccn2)C1 (stereo unspecified)", "106.3%"],
  ["CCc1c(C)nc2n(c1=O)CC(C(=O)Nc1ccccc1C)CS2 (stereo unspecified)", "112.9%"],
  ["COc1ccc(O[C@H]2COCCN(Cc3cccc4c3OCO4)C2)cc1", "-9.045%"],
  ["Cc1ccc(NC(=O)Cn2ccc3c(=O)n(C)ccc32)cc1F", "136.8%"],
  ["c1nc2n(n1)CC(NCc1csc(-c3ccsc3)n1)CC2 (stereo unspecified)", "-11.03%"],
  ["CN(C)c1nc(N)nc(CN2CCC(c3nc4ccccc4o3)CC2)n1", "-47.21%"],
  ["Clc1cccc(-c2nc(CNC3CCc4ncnn4C3)co2)c1 (stereo unspecified)", "112.7%"],
  ["OC1(CN2CCCCC2)CCN(c2ccc(C(F)(F)F)cn2)C1 (stereo unspecified)", "107.5%"],
  ["CC1(C)CC(N(Cc2ccncc2)Cc2cccnc2)CC(C)(C)N1.O=C(O)CC(O)(CC(=O)O)C(=O)O", "106.8%"],
  ["Oc1ccc(-c2c(-c3ccccc3)ncn2C2CCNC2)cc1 (stereo unspecified)", "5.17%"],
  ["CN(CCc1nc2cc(Cl)ccc2[nH]1)C(=O)c1ncn[nH]1", "8.261%"],
  ["Cc1cccc(C2CCCN2Cc2nc(N)nc(N(C)C)n2)c1C (stereo unspecified)", "140.3%"],
  ["CCc1c(C)nc2n(c1=O)CC(C(=O)Nc1sccc1C(=O)OC)CS2 (stereo unspecified)", "119.9%"],
  ["Cc1ccc(NC(=O)Cc2c(C)nc3c(c2C)c(=O)[nH]n3C)cc1F", "-4.371%"],
  ["CCn1c(C)nnc1CN(C)C1CCN(Cc2c(C)noc2C)C1 (stereo unspecified)", "-8.892%"],
  ["CC1(C)CC(N(Cc2cccnc2)Cc2cccc(F)c2)CC(C)(C)N1.O=C(O)CC(O)(CC(=O)O)C(=O)O", "152.9%"],
  ["CN(C)c1nc(N)nc(CN2CCCC2c2ccsc2)n1 (stereo unspecified)", "99.77%"],
  ["CCCNC(=O)CCC(=O)Nc1cc2sc(C)nc2cc1OC", "9.826%"],
  ["Fc1ccc(-c2nnc(CNC3CCc4ncnn4C3)o2)cc1 (stereo unspecified)", "-10.58%"],
  ["COc1cccc(-c2n[nH]c3c2CN(C(=O)C2=C(C)OCCO2)CC3)c1", "9.828%"],
  ["CCCN(Cc1cccnc1)C(=O)C1CCS(=O)(=O)CC1", "-18.37%"],
  ["c1csc(-c2nc(CNC3CCc4ncnn4C3)co2)c1 (stereo unspecified)", "-0.5039%"],
  ["CC(=O)c1c(C)nn(CC(=O)Nc2ccc(Br)cc2)c1C", "-0.7117%"],
  ["O=C(C[C@@H]1COC[C@H]2CN(C3CCCC3)C[C@@H]12)N1CCCCO1.O=C(O)C(F)(F)F", "2.72%"],
  ["O=C(CCc1cn[nH]c1)N1CCC(C2CCN(c3ncccn3)CC2)C1 (stereo unspecified)", "-3.024%"],
  ["Cc1cc(F)ccc1S(=O)(=O)NCc1[nH]ncc1Br", "19.22%"],
  ["FC(F)(F)c1ccnc(N2CCCOCC2)c1", "1.908%"],
  ["OC1(CN2CCCC2)COCCN(c2cc(C(F)(F)F)ccn2)C1 (stereo unspecified)", "99.83%"],
  ["OC1(CN2CCCC2)COCCN(c2nccs2)C1 (stereo unspecified)", "-1.349%"],
  ["Cc1nnc(CN2CCC(N(C)Cc3nnc(C4CC4)n3C)C2)o1 (stereo unspecified)", "-3.428%"],
  ["COCCN1CC2(CCC1=O)CCN(Cc1nnc(C)o1)CC2", "2.828%"],
  ["Clc1ccccc1-c1nc(CNC2CCc3ncnn3C2)co1 (stereo unspecified)", "83.87%"],
  ["Cc1cc(NC(=O)Cn2cc(C#N)c(=O)c3cc(Br)ccc32)no1", "-1.057%"],
  ["Cc1nc(CN2CCC(N(C)Cc3nnc(C4CC4)n3C)C2)oc1C (stereo unspecified)", "102.1%"],
  ["CC(C)c1nc(C2CCCN(C(=O)c3ccc4c(c3)COC4)C2)no1 (stereo unspecified)", "126.8%"],
  ["Cc1cccc(CN(Cc2cccnc2)C2CC(C)(C)NC(C)(C)C2)n1.O=C(O)CC(O)(CC(=O)O)C(=O)O", "68.09%"]
]}
